Data provenance: patent US9776972B2

- target_system: human PRMT8 (Homo sapiens)
- Sequence (Q9NR22 whole entry): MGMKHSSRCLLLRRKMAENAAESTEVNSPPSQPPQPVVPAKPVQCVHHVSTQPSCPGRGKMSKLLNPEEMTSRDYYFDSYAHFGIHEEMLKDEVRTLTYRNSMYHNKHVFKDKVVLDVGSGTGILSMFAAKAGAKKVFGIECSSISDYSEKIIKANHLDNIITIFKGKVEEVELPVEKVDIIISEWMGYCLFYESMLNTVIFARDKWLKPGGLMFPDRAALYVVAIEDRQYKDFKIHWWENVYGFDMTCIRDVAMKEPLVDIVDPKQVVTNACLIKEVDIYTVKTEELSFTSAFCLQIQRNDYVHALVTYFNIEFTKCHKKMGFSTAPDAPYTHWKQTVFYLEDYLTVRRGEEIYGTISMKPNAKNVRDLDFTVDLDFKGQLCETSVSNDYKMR
- measurement_notes: PRMT8 Biochemical Assay (3H-SAM Flashplate, peptide substrate)
- measurement_context: single experiment or average of multiple experiments
measured_attribute: IC50 (nM)

{"columns": ["compound", "measurement_units", "IC50"],
 "data": [
  ["CNCCN(C)Cc1c[nH]nc1-c1ccc(OC2CCC(O)CC2)cc1 (centres unmarked)", "nM", 55],
  ["CNCCN(C)Cc1c[nH]nc1-c1ccc(OCCCOC)c(Cl)c1", "nM", 316],
  ["CCN(CC)C(=O)c1ccc(-c2n[nH]cc2CN(C)CCN)cc1", "nM", 1750],
  ["CC(C)Oc1ccc(-c2c[nH]nc2CN(C)CCN)cc1F", "nM", 171],
  ["COc1ccc(-c2n[nH]cc2CN(C)CCN)c(C(F)(F)F)c1", "nM", 6170]
]}

a = CNCCN(C)Cc1c[nH]nc1-c1ccc(OC2CCOCC2)c(Cl)c1
b = CN(CCN)Cc1c[nH]nc1-c1cccc(N(C)C)c1
c = CC(C)N(CCN)Cc1c[nH]nc1-c1ccc(F)cc1
Problem: Sequence the entries by IC50, beginning with the highest number. Please list the labels in the order you were asked to rank them.
Solution: c, b, a
(c: 2510 nM, b: 910 nM, a: 8.52 nM)

a = CN(CCN)Cc1cn(CCO)nc1-c1ccc(F)cc1
b = Cc1[nH]nc(-c2ccc(F)cc2)c1CN(C)CCN
c = CNCCN(C)Cc1c[nH]nc1-c1ccc(OC)cc1
d = Cc1cccc(-c2n[nH]cc2CN(C)CCN)c1
Problem: # rank by IC50, ascending (min first) Please list the labels in the order you were asked to rank them.
Solution: d, c, b, a

P = CNCCN(C)Cc1cnn(CCCC(O)CO)c1-c1ccc(F)cc1 (centres unmarked)
Q = CN(CCN)Cc1nn(C)cc1-c1ccc(C#N)cc1
R = Cc1ccc(-c2n[nH]cc2CN(C)CCN)cc1
Problem: Sequence the entries by IC50, beginning with the highest number. Please list the labels in the order you were asked to rank them.
Solution: P, Q, R
(P: 6310 nM, Q: 710 nM, R: 273 nM)

1 = CN(CCN)Cc1c[nH]nc1-c1cccc(Cl)c1F
2 = CN(CCN)Cc1n[nH]cc1-c1ccc(Cl)cc1
Problem: Select one. Lower IC50: 1 or 2 Lab note: record the label of whichever item you select.
Solution: 2
(2: 311 nM, 1: 532 nM)
